Target: Alpha-2A adrenergic receptor (Homo sapiens); note: assay procedure not described here
Sequence (P08913 whole entry): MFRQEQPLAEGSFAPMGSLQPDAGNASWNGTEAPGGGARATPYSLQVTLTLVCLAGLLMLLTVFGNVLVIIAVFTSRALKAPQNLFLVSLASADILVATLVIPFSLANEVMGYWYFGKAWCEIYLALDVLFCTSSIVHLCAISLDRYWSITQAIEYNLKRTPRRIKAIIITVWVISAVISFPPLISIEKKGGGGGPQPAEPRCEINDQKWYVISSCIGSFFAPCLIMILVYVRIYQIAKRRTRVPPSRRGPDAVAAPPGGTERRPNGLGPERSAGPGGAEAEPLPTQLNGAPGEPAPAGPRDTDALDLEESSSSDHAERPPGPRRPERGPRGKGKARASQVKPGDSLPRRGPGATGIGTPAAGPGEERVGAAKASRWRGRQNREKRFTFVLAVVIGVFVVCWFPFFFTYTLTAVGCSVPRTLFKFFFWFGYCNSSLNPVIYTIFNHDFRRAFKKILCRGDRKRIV
Assay type: functional, cell-based
measurement-label: AC50

O=C(NCCNCC(O)COc1ccc(O)cc1)N1CCOCC1 (stereo not drawn) :: > 30 µM
Cc1cc(O)c(C(=O)N[C@@H](C(=O)N[C@@H]2C(=O)N3C(C(=O)O)=C(CSc4nnnn4C)CS[C@H]23)c2ccc(O)cc2)cn1 [CEFPIRAMIDE] :: > 30 µM
CC[C@@H](C(N)=O)N1CCCC1=O :: > 30 µM
O=C(O)/C=C/c1ccc(Cn2ccnc2)cc1 :: > 30 µM
CC/C(=C(\c1ccccc1)c1ccc(OCCN(C)C)cc1)c1ccccc1 :: > 10 µM
O=[N+]([O-])O[C@@H]1CO[C@H]2[C@@H]1OC[C@@H]2O [ISOSORBIDE MONONITRATE] :: > 10 µM
CC(C)Cn1cnc2c(N)nc3ccccc3c21 :: > 10 µM
CC1(C)NC(=O)N(c2ccc([N+](=O)[O-])c(C(F)(F)F)c2)C1=O [NILUTAMIDE] :: > 30 µM
CC[C@H]1[C@@H](O)[C@@H]2[C@H](CC[C@]3(C)[C@@H]([C@H](C)CCC(=O)O)CC[C@@H]23)[C@@]2(C)CC[C@@H](O)C[C@@H]12 :: > 30 µM
COc1ccc(CCNCC(O)COc2cccc(C)c2)cc1OC (stereo not drawn) :: > 10 µM
Cc1c(OCC(F)(F)F)ccnc1C[S+]([O-])c1nc2ccccc2[nH]1 (stereo not drawn) :: > 10 µM
COc1ccccc1N1CCN(CCCNc2cc(=O)n(C)c(=O)n2C)CC1 :: > 30 µM
CNS(=O)(=O)Cc1ccc2[nH]cc(CCN(C)C)c2c1 :: > 30 µM

* * *

Molecular target: Prostaglandin G/H synthase 1 (Homo sapiens, UniProt P23219); note: assay procedure not described here
Sequence (P23219 whole entry): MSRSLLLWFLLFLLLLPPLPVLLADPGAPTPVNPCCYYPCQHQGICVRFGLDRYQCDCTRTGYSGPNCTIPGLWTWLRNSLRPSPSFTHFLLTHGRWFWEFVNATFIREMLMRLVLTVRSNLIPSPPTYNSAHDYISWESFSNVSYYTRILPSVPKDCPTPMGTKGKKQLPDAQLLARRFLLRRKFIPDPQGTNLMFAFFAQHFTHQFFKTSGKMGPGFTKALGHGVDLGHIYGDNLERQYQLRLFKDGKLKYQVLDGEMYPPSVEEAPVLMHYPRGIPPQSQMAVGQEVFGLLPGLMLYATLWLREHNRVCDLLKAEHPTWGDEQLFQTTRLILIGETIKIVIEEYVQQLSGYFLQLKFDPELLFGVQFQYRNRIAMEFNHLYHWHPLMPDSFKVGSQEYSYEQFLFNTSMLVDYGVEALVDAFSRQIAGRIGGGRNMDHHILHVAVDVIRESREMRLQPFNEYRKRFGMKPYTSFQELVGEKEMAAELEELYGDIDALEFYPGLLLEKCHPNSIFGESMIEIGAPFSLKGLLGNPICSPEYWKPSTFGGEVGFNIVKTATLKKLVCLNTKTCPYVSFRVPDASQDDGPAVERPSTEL
Assay type: functional
measurement-label: AC50

COc1cc(NC(C)CCCN)c2ncccc2c1 (stereo not given) [PRIMAQUINE] :: 3.95 µM
N=c1ccn2c(n1)O[C@H]1[C@H](O)[C@@H](CO)O[C@H]12 [ANCITABINE] :: > 30 µM
CC(C)(C)C(=O)C(Oc1ccc(Cl)cc1)n1ccnc1 (stereo not given) [CLIMBAZOLE] :: > 30 µM
O=[N+]([O-])c1cn2c(n1)OC[C@@H](OCc1ccc(OC(F)(F)F)cc1)C2 [PRETOMANID] :: > 30 µM
N[C@H](C(=O)O)[C@H](O)c1ccc(O)c(O)c1 [DROXIDOPA] :: > 30 µM
Clc1cc(Cl)c(OCC#CI)cc1Cl [HALOPROGIN] :: > 30 µM
COc1cc([C@@H]2c3cc4c(cc3[C@H](O)[C@H]3COC(=O)[C@H]23)OCO4)cc(OC)c1OC [PODOFILOX] :: > 30 µM
C=C[C@H]1C[N@@]2CC[C@H]1C[C@H]2[C@H](O)c1ccnc2ccc(OC)cc12 [QUININE] :: > 10 µM
CC(C)C[C@H]1C(=O)N2CCC[C@H]2[C@]2(O)O[C@](NC(=O)[C@@H]3C=C4c5cccc6[nH]c(Br)c(c56)C[C@H]4N(C)C3)(C(C)C)C(=O)N12 [BROMOCRIPTINE] :: 4.61 µM
Cc1cc(OP(=O)(O)O)c2ccccc2c1OP(=O)(O)O [MENADIOL SODIUM DIPHOSPHATE] :: > 30 µM

* * *

Dear all, this message contains AC50 results, target or system UniProt Q01959.
Sequence (Q01959 whole entry): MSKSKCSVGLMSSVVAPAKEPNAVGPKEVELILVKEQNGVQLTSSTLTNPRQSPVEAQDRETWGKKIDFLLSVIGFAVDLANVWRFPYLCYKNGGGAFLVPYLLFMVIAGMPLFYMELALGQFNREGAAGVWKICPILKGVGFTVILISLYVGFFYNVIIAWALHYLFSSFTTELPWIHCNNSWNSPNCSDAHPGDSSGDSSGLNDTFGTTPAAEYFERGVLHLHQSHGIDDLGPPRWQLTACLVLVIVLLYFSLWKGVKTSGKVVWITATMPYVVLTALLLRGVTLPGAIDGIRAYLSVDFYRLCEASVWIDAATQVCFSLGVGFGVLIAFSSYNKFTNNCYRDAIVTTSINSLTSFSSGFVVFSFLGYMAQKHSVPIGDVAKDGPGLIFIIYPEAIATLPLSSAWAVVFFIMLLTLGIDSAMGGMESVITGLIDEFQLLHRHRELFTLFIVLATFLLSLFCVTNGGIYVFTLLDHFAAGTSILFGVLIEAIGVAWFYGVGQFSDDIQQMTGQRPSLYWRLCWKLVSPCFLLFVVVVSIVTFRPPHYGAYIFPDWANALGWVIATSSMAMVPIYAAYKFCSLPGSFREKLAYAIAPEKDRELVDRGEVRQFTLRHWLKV
measurement-label: AC50

CCOc1ccccc1C(N)=O [ETHENZAMIDE] :: > 30 µM
NCC(CC(=O)O)c1ccc(Cl)cc1 (stereo not given) :: > 30 µM
CCN(CC)CCOC(=O)C(c1ccccc1)C1CCCCC1 (stereo not given) :: 0.219 µM
COCc1c(C(C)C)nc(C(C)C)c(/C=C/[C@@H](O)C[C@@H](O)CC(=O)O)c1-c1ccc(F)cc1 :: > 30 µM
CC[C@H]1OC(=O)[C@H](C)[C@@H](O[C@H]2C[C@@](C)(OC)[C@@H](O)[C@H](C)O2)[C@H](C)[C@@H](O[C@@H]2O[C@H](C)C[C@H](N(C)C)[C@H]2O)[C@](C)(O)C[C@@H](C)CN(C)[C@H](C)[C@@H](O)[C@]1(C)O :: > 30 µM

* * *

Molecular target: Beta-1 adrenergic receptor (Homo sapiens, UniProt P08588); note: assay procedure not described here
Sequence (P08588 whole entry): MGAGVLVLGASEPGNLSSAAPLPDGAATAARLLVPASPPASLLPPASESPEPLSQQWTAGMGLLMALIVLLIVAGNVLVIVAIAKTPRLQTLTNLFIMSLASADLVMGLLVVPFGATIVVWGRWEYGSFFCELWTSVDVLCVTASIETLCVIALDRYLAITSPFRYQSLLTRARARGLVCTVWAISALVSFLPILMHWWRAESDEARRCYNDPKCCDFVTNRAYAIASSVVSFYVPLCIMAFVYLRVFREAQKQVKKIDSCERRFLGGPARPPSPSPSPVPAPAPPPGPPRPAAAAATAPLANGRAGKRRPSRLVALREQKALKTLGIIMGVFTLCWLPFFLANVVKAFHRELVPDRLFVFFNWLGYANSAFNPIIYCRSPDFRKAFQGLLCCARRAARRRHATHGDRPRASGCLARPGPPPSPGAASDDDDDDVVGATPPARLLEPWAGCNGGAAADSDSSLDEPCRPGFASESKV
Type: functional
measurement-label: AC50

C=CCC1(C(C)CC)C(=O)NC(=O)NC1=O (stereo not given) :: > 10 µM
COc1cc2nc(N(C)CCCNC(=O)C3CCCO3)nc(N)c2cc1OC (stereo not given) :: > 30 µM
NCC[C@H](O)C(=O)N[C@@H]1C[C@H](N)[C@@H](O[C@H]2O[C@H](CN)[C@@H](O)[C@H](O)[C@H]2O)[C@H](O)[C@H]1O[C@H]1O[C@H](CO)[C@@H](O)[C@H](N)[C@H]1O :: > 10 µM
C#C[C@]1(O)CC[C@H]2[C@@H]3[C@H](C)CC4=C(CCC(=O)C4)[C@H]3CC[C@@]21C :: > 30 µM
COc1ccccc1OCCNCC(O)c1ccc(C)c(S(N)(=O)=O)c1 (stereo not given) :: 0.06 µM
Clc1ccc(CCCOCCCN2CCCCC2)cc1 :: > 30 µM
C=CCC1(CC(C)C)C(=O)NC(=O)NC1=O :: > 10 µM
O=C(NCCN1CCOCC1)c1ccc(Cl)cc1 [MOCLOBEMIDE] :: > 10 µM
C1CCC(C(CC2CCCCN2)C2CCCCC2)CC1 (stereo not given) :: > 30 µM
C[C@](N)(Cc1ccc(O)c(O)c1)C(=O)O :: > 10 µM

* * *

Molecular target: Alpha-1A adrenergic receptor (Homo sapiens, UniProt P35348); note: assay procedure not described here
Sequence (P35348 whole entry): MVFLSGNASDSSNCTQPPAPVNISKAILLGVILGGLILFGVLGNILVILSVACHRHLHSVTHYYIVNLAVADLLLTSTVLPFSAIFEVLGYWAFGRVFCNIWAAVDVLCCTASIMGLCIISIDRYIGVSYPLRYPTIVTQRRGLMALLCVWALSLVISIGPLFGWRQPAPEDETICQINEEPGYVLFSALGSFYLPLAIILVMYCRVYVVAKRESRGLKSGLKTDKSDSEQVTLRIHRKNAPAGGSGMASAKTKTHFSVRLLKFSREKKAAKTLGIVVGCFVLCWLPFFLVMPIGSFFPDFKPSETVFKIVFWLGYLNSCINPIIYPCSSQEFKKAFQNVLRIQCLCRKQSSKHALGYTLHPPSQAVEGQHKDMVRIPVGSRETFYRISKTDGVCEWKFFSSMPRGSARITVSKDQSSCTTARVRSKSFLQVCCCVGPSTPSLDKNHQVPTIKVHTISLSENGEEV
Assay type: functional, cell-based
measurement-label: AC50

CC[C@]1(O)C[C@H]2CN(CCc3c([nH]c4ccccc34)[C@@](C(=O)OC)(c3cc4c(cc3OC)N(C=O)[C@H]3[C@@](O)(C(=O)OC)[C@H](OC(C)=O)[C@]5(CC)C=CCN6CC[C@]43[C@@H]65)C2)C1 :: > 30 µM
O=c1[nH]c(=O)n([C@H]2C[C@H](O)[C@@H](CO)O2)cc1I :: > 30 µM
CCCCS(=O)(=O)N[C@@H](Cc1ccc(OCCCCC2CCNCC2)cc1)C(=O)O :: > 10 µM
CC[N+]1(C)[C@@H]2CC(OC(=O)[C@H](CO)c3ccccc3)C[C@H]1[C@@H]1O[C@@H]12 (stereo partly specified) :: > 30 µM
CC(=O)OCC(=O)[C@@]1(O)CC[C@H]2[C@@H]3CCC4=CC(=O)C=C[C@]4(C)[C@@]3(Cl)[C@@H](Cl)C[C@@]21C [DICHLORISONE ACETATE] :: > 30 µM
CC(=O)[C@@]1(O)CC[C@H]2[C@@H]3C=C(C)C4=CC(=O)CC[C@]4(C)[C@H]3CC[C@@]21C :: > 30 µM
CC[C@H]1CN2CC[C@H]1C[C@H]2[C@H](O)c1ccnc2ccc(OC)cc12 [HYDROQUININE] :: > 30 µM
Cc1cc(NS(=O)(=O)c2ccc(N)cc2)nc(C)n1 :: > 30 µM
O=[N+]([O-])O[C@@H]1CO[C@H]2[C@@H]1OC[C@@H]2O [ISOSORBIDE MONONITRATE] :: > 30 µM
O=c1[nH]c(=O)n(C2CCCO2)cc1F (stereo unspecified) :: > 30 µM
N=c1ccn2c(n1)O[C@H]1[C@H](O)[C@@H](CO)O[C@H]12 :: > 30 µM

* * *

Target: UniProt P08172
Sequence (P08172 whole entry): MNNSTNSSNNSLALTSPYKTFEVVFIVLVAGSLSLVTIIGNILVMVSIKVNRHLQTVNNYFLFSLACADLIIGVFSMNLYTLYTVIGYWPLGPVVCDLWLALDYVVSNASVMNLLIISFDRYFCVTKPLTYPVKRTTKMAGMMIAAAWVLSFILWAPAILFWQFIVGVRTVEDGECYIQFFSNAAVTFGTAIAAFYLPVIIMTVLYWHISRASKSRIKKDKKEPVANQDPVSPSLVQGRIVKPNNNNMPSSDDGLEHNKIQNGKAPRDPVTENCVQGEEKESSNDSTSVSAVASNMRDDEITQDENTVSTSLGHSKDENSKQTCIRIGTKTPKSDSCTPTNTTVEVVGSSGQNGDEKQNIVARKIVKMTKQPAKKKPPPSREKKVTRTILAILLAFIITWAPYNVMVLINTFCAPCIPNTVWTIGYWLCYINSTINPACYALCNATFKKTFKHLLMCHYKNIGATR
Format: functional, cell-based
measurement-label: AC50

CCCC(=O)O[C@]1(C(=O)CO)CC[C@H]2[C@@H]3CCC4=CC(=O)CC[C@]4(C)[C@H]3[C@@H](O)C[C@@]21C [HYDROCORTISONE BUTYRATE] :: > 10 µM
Clc1ccccc1C(c1ccccc1)(c1ccccc1)n1ccnc1 :: > 10 µM
CC1(C)O[C@@H]2C[C@H]3[C@@H]4CCC5=CC(=O)C=C[C@]5(C)[C@H]4[C@@H](O)C[C@]3(C)[C@]2(C(=O)CO)O1 [DESONIDE] :: > 10 µM
CN(C)CCC(c1ccc(Cl)cc1)c1ccccn1 (stereo not given) :: > 10 µM
CC[C@H]1[C@@H](O)[C@@H]2[C@H](CC[C@]3(C)[C@@H]([C@H](C)CCC(=O)O)CC[C@@H]23)[C@@]2(C)CC[C@@H](O)C[C@@H]12 :: 16 µM
